Recorded measurements of apparent Kd, one per entry
Tested on: MS2 coat protein
Test: apparent Kd, MS2 coat protein; higher = weaker binding; RNA-MaP array; FMN 200 µM where present
Details: ligand present: flavin mononucleotide; designed as: OFF switch for flavin mononucleotide

[
  {
    "ENTRY_SEQUENCE": "UUCUACAAGUAAGGAUAUCGGCUAUAGUUAACUCGAGAAGGUACAUGAGGAUCACCCAUGUAGUAGAUACAGACUACUGGCUUG",
    "apparent Kd [nM]": 13.3
  },
  {
    "ENTRY_SEQUENCE": "GGGUGACUAGGAUAUACAUGAGGAUCACCCAUGUGUACUGGACCUGGGUAGUCUUGGAGUAGAAGGAGUAGCUG",
    "apparent Kd [nM]": 127
  },
  {
    "ENTRY_SEQUENCE": "AAUUACAGAGGAUAUGCGCGGUAAAACAUGAGGAUCACCCAUGUGAUACCUGCAUGACCGGCAGAAGGCUGCGUUU",
    "apparent Kd [nM]": 108
  },
  {
    "ENTRY_SEQUENCE": "UUAGAAUUUGCAGGAUAUUGUAUUUUAUUACAUCAAGAAGGGCAUUACAUGAGGAUCACCCAUGUUAACAUGGUUAUAAAUUUU",
    "apparent Kd [nM]": 29.5
  },
  {
    "ENTRY_SEQUENCE": "GCGCGAAGGUAGGAUAUCCAGGGAUCUUCCCGCGGAGAAGGACCCACAUGAGGAUCACCCAUGUGGUGAUCCUG",
    "apparent Kd [nM]": 17.4
  },
  {
    "ENTRY_SEQUENCE": "UCGUUUUUUGAGGAUAUGCGACGUUCCUUCGUCGUAGAAGGCGAUACAUGAGGAUCACCCAUGUUUAUGGGCAU",
    "apparent Kd [nM]": 138
  },
  {
    "ENTRY_SEQUENCE": "CUCUUGUGAGGAUAUCAGUAGUAAAAAAAUAAAAUUACUACUGAGAAGGCACAUGAGGAUCACCCAUGUGACUU",
    "apparent Kd [nM]": 30.5
  },
  {
    "ENTRY_SEQUENCE": "ACUAAACGAGGAUAUACUGACAGGCCUCAGACAUACAUCAAACAUGAGGAUCACCCAUGUAGAAGGCGUAAACU",
    "apparent Kd [nM]": 36.7
  },
  {
    "ENTRY_SEQUENCE": "UGAUCGAGAGAUCUUAGAUUCUGGUAGGAUAUACAUUAAAAGCGCUUUACAUGAGGAUCACCCAUGUAGAAGGACUAGAGUCUA",
    "apparent Kd [nM]": 9.42
  },
  {
    "ENTRY_SEQUENCE": "UCCUUGGUACAGAAGGACCGAGCUCAGUAGCAGGUAGGAUAUGUACAUGAGGAUCACCCAUGUCAGCGGUAAUUACCAGUUUUC",
    "apparent Kd [nM]": 24.2
  },
  {
    "ENTRY_SEQUENCE": "GGAUGACAUAGUCAUCUUUAACGAACAUGAGGAUCACCCAUGUAGGAUAUGCUACUCAACGAGUAGCAGAAGGACAUGUGUCUU",
    "apparent Kd [nM]": 127
  },
  {
    "ENTRY_SEQUENCE": "ACGACAAAAGUCGAACGAUGUAGCAGAAGGACAUGAGGAUCACCCAUGUAAAAUGUAACAGCCAUGUAGGAUAUGCAAAAUCGA",
    "apparent Kd [nM]": 159
  },
  {
    "ENTRY_SEQUENCE": "UUCAGCUCGUGAGGAUAUACAUGUGCUGGAAACAGCACUAUUGAGUUCACAUGAGGAUCACCCAUGUAGAAGGCACGAGCUGAG",
    "apparent Kd [nM]": 27.9
  },
  {
    "ENTRY_SEQUENCE": "UUUUAACAUGAGGAUCACCCAUGUGAGGAUAUCGUAAUUUUUAUUAAUAUUAAUAAAACGAGAAGGCACAUUUU",
    "apparent Kd [nM]": 81
  },
  {
    "ENTRY_SEQUENCE": "UUUAUGUCAGGAUAUACAUGAGGAUCACCCAUGUAUAUCUUAAAAUAUACAUGGGAAUGUAGAAGGGACCUCCU",
    "apparent Kd [nM]": 41
  },
  {
    "ENTRY_SEQUENCE": "CUAUGCCGAAUAGGAUAUUCGAUCAAAAGGAUAGAAGAAGGGUUACAUGAGGAUCACCCAUGUAUGCACAUGAGGAUCCCUUAG",
    "apparent Kd [nM]": 316
  },
  {
    "ENTRY_SEQUENCE": "GGAUCGAGUGUGAGGAUAUACCUAUGGAUACAUAGGUAGAAGGCACAUGAGGAUCACCCAUGUGUUCCCGGUCC",
    "apparent Kd [nM]": 368
  },
  {
    "ENTRY_SEQUENCE": "ACUAAGAGAGGAUAUACUAACAAACCUCAAACAUACAUCAAACAUGAGGAUCACCCAUGUAGAAGGCUCAAACU",
    "apparent Kd [nM]": 31.6
  },
  {
    "ENTRY_SEQUENCE": "UUUUAACAUGAGGAUCACCCAUGUGAGGAUAUCGAAAUUUAUAUUAAUAUUUAUUAUACGAGAAGGCACAUUUU",
    "apparent Kd [nM]": 97
  },
  {
    "ENTRY_SEQUENCE": "UGUCAUAUAUAGAAGGGUAGUAGGGAUUUACAUGAGGAUCACCCAUGUAUUAUAGGAUAUGUGUAUAGUUUUUAUUCAAGUAUA",
    "apparent Kd [nM]": 17.9
  },
  {
    "ENTRY_SEQUENCE": "GAUCCUUCUGUUAGGAUAUGCUUUGGGCUUCCGCAGCAGAAGGAACAUGAGGAUCACCCAUGUCCAAUGCCGUC",
    "apparent Kd [nM]": 63.9
  },
  {
    "ENTRY_SEQUENCE": "UAUGGUAAAGUCAGGAUAUACGUGCAGUUUUCUGGGUAGAAGGGACAUGAGGAUCACCCAUGUAUGGUAGUGUU",
    "apparent Kd [nM]": 142
  },
  {
    "ENTRY_SEQUENCE": "CCGGAAUUGCAGGAUAUAGGAGUCGAUAGACACCUAGAAGGGCAGACAUGAGGAUCACCCAUGUGUCCUACCGG",
    "apparent Kd [nM]": 31.2
  },
  {
    "ENTRY_SEQUENCE": "UUUUUAUUUGCAGGAUAUUGUAUUUUAUUACAUCAAGAAGGGCAUUACAUGAGGAUCACCCAUGUCUUCCUAUGGUUAACUAGU",
    "apparent Kd [nM]": 10.2
  },
  {
    "ENTRY_SEQUENCE": "UAUUUAUAGCAAGGAUAUGAUUAUUAUUAUUUAUCAGAAGGUGCACAUGAGGAUCACCCAUGUUUUACAAUUUGUAAUUUAAUU",
    "apparent Kd [nM]": 25.1
  },
  {
    "ENTRY_SEQUENCE": "GAGAAGGGAGGAUAUGCUGCUCGUCACUUGCGUGAUGAGUAGCAGAAGGCACAUGAGGAUCACCCAUGUAAAGG",
    "apparent Kd [nM]": 29.4
  },
  {
    "ENTRY_SEQUENCE": "UAUUAGUUAGGAUAUACAUGAGGAUCACCCAUGUCACGGGUCCACUUGUCCUAUGCGUGUAGAAGGAGCGACCC",
    "apparent Kd [nM]": 20.8
  },
  {
    "ENTRY_SEQUENCE": "GGAUCGAUAGUGAGGAUAUACCACUGGAUACAGUGGUAGAAGGCACAUGAGGAUCACCCAUGUCCUAACGAUCC",
    "apparent Kd [nM]": 99.4
  },
  {
    "ENTRY_SEQUENCE": "CGUAUACAUGAGGAUCACCCAUGUGAGGAUAUGCUUUAUUAUUAUUAUUAUUAUUGUUGCAGAAGGUACAUUGC",
    "apparent Kd [nM]": 18.2
  },
  {
    "ENTRY_SEQUENCE": "AAGAAGACAGGAUAUACAUGAAAGAAAGAAAAGAAAAGAAAACAUGAGGAUCACCCAUGUAGAAGGGUCAAGAA",
    "apparent Kd [nM]": 59.2
  }
]
